- Assay overview: Selectivity index, ratio of IC50 for mouse J774.2 cells to IC50 for amastigote form of Leishmania infantum MCAN/ES/2001/UCM-10 infected in J774.2 cells
- Type: toxicity, cell-based
- Experimental context: J774.2 cells, read-out: Ratio IC50
Property label: selectivity ratio
API doc: respond with a numeric literal and nothing else, no unit.

(Q) // query selectivity ratio value for entry `Cl.c1cncc(CNCCN2CCNCc3cccc(n3)CNCC2)c1`
(A) 74.3

(Q) Param item: `Cl.c1ccc(CNCCN2CCNCc3cccc(n3)CNCC2)nc1`
(A) 13

(Q) Param item: `Cl.c1cc2nc(c1)CNCCN(CCNCc1cccc3ccccc13)CCNC2`
(A) 21

(Q) Param item: `Br.NCCN1CCNCc2cccc(n2)CNCC1`
(A) 9

(Q) Param item: `Br.NCCCNCCN1CCNCc2cccc(n2)CNCC1`
(A) 4.9

###

- System: Leishmania braziliensis
- Assay overview: Antileishmanial activity against promastigote form of Leishmania braziliensis MHOM/BR/1975/M2904 assessed as change in lactate metabolite production at IC25 concentration after 96 hrs by H1-NMR analysis
- Format: functional, MHOM/BR/75/M2904
Property label: Activity (%)
Dear colleague, please return just the value in %, with no unit written.

(Q) Query for Leishmania braziliensis: what Activity does the record show for `Cl.c1cc2nc(c1)CNCCN(CCNCc1cccc3ccccc13)CCNC2` ?
(A) 0

(Q) Param item: `Cl.c1ccc(CNCCN2CCNCc3cccc(n3)CNCC2)nc1`
(A) 0

(Q) Param item: `Cl.c1cncc(CNCCN2CCNCc3cccc(n3)CNCC2)c1`
(A) 19

(Q) Param item: `Br.NCCN1CCNCc2cccc(n2)CNCC1`
(A) 6

###

- Assay overview: Inhibition of Escherichia coli Mn-SOD by […] reduction assay
Kindly state pIC50 for each of the entries shown.
The read-out pIC50 is expressed as -log10 of concentration in moles per litre.

(Q) // query pIC50 value for entry `Cl.c1cc2nc(c1)CNCCN(CCNCc1cccc3ccccc13)CCNC2`
(A) 3.39

(Q) Param item: `Cl.c1ccc(CNCCN2CCNCc3cccc(n3)CNCC2)nc1`
(A) 3.75

(Q) Param item: `Br.NCCN1CCNCc2cccc(n2)CNCC1`
(A) 3.42

(Q) Param item: `Cl.c1cncc(CNCCN2CCNCc3cccc(n3)CNCC2)c1`
(A) 3.19

###

- Assay overview: Selectivity index, ratio of IC50 for mouse J774.2 cells to IC50 for axenic amastigote form of Leishmania infantum MCAN/ES/2001/UCM-10
- Type: toxicity
- Experimental context: J774.2 cells, read-out: Ratio IC50
Property label: selectivity ratio
API doc: respond with a numeric literal and nothing else, no unit.

(Q) // query selectivity ratio value for entry `Br.NCCCNCCN1CCNCc2cccc(n2)CNCC1`
(A) 7.4

(Q) Param item: `Cl.c1ccc(CNCCN2CCNCc3cccc(n3)CNCC2)nc1`
(A) 10

(Q) Param item: `Cl.c1cc2nc(c1)CNCCN(CCNCc1cccc3ccccc13)CCNC2`
(A) 13

(Q) Param item: `Br.NCCN1CCNCc2cccc(n2)CNCC1`
(A) 8

(Q) Param item: `Cl.c1cncc(CNCCN2CCNCc3cccc(n3)CNCC2)c1`
(A) 29.4

###

- System: J774.2
- Assay overview: Cytotoxicity against mouse J774.2 cells after 72 hrs by PI-staining based flow cytometric analysis
- Type: cell-based
- Experimental context: J774.2, 72 h
Lab note: anything with IC50 below 300 µM is marked satisfied; values at 300 µM or higher are marked not satisfied.

(Q) A record lists `Br.NCCCNCCN1CCNCc2cccc(n2)CNCC1` . Is its IC50 below 300 µM?
(A) satisfied

(Q) Param item: `Cl.c1cc2nc(c1)CNCCN(CCNCc1cccc3ccccc13)CCNC2`
(A) not satisfied

(Q) Param item: `Cl.c1ccc(CNCCN2CCNCc3cccc(n3)CNCC2)nc1`
(A) satisfied

(Q) Param item: `Cl.c1cncc(CNCCN2CCNCc3cccc(n3)CNCC2)c1`
(A) not satisfied

(Q) Param item: `Br.NCCN1CCNCc2cccc(n2)CNCC1`
(A) satisfied

###

- Assay overview: Selectivity index, ratio of IC50 for mouse J774.2 cells to IC50 for axenic amastigote form of Leishmania braziliensis MHOM/BR/1975/M2904
- Format: toxicity
- Experimental context: J774.2 cells, read-out: Ratio IC50
Kindly state selectivity ratio for each of the entries shown.
API doc: respond with a numeric literal and nothing else, no unit.

(Q) // query selectivity ratio value for entry `Br.NCCCNCCN1CCNCc2cccc(n2)CNCC1`
(A) 7

(Q) Param item: `Cl.c1ccc(CNCCN2CCNCc3cccc(n3)CNCC2)nc1`
(A) 15.9

(Q) Param item: `Br.NCCN1CCNCc2cccc(n2)CNCC1`
(A) 14.5

(Q) Param item: `Cl.c1cc2nc(c1)CNCCN(CCNCc1cccc3ccccc13)CCNC2`
(A) 14.7

(Q) Param item: `Cl.c1cncc(CNCCN2CCNCc3cccc(n3)CNCC2)c1`
(A) 19.6

###

- System: Leishmania braziliensis
- Assay overview: Antileishmanial activity against promastigote form of Leishmania braziliensis MHOM/BR/1975/M2904 assessed as change in acetate metabolite production at IC25 concentration after 96 hrs by H1-NMR analysis
- Format: functional, MHOM/BR/75/M2904
Kindly state Activity for each of the entries shown.

(Q) // query Activity value for entry `Cl.c1cncc(CNCCN2CCNCc3cccc(n3)CNCC2)c1`
(A) -13%

(Q) Param item: `Cl.c1ccc(CNCCN2CCNCc3cccc(n3)CNCC2)nc1`
(A) -46%

(Q) Param item: `Cl.c1cc2nc(c1)CNCCN(CCNCc1cccc3ccccc13)CCNC2`
(A) 8%

(Q) Param item: `Br.NCCN1CCNCc2cccc(n2)CNCC1`
(A) 18%

###

Kindly state Ratio for each of the entries shown.
- Assay overview: Ratio of compound selectivity index to glucantime selectivity index for amastigote form of Leishmania braziliensis MHOM/BR/1975/M2904 infected in J774.2 cells over mouse J774.2 cells
API doc: respond with a numeric literal and nothing else, no unit.

(Q) // query Ratio value for entry `Cl.c1cc2nc(c1)CNCCN(CCNCc1cccc3ccccc13)CCNC2`
(A) 27

(Q) Param item: `Br.NCCCNCCN1CCNCc2cccc(n2)CNCC1`
(A) 14

(Q) Param item: `Cl.c1cncc(CNCCN2CCNCc3cccc(n3)CNCC2)c1`
(A) 57

(Q) Param item: `Cl.c1ccc(CNCCN2CCNCc3cccc(n3)CNCC2)nc1`
(A) 30

(Q) Param item: `Br.NCCN1CCNCc2cccc(n2)CNCC1`
(A) 29

###

- Assay overview: Selectivity index, ratio of IC50 for mouse J774.2 cells to IC50 for promastigote form of Leishmania infantum MCAN/ES/2001/UCM-10
- Type: toxicity
- Experimental context: J774.2 cells, read-out: Ratio IC50
Lab note: anything with selectivity ratio below 10 is marked Satisfied; values at 10 or higher are marked Not satisfied.

(Q) A record lists `Br.NCCCNCCN1CCNCc2cccc(n2)CNCC1` . Is its selectivity ratio below 10?
(A) Satisfied

(Q) Param item: `Br.NCCN1CCNCc2cccc(n2)CNCC1`
(A) Not satisfied

(Q) Param item: `Cl.c1cc2nc(c1)CNCCN(CCNCc1cccc3ccccc13)CCNC2`
(A) Not satisfied

(Q) Param item: `Cl.c1cncc(CNCCN2CCNCc3cccc(n3)CNCC2)c1`
(A) Not satisfied

(Q) Param item: `Cl.c1ccc(CNCCN2CCNCc3cccc(n3)CNCC2)nc1`
(A) Not satisfied

###

- Assay overview: Selectivity index, ratio of IC50 for mouse J774.2 cells to IC50 for promastigote form of Leishmania braziliensis MHOM/BR/1975/M2904
- Format: toxicity
- Experimental context: J774.2 cells, read-out: Ratio IC50
Record t whenever selectivity ratio is at 20 or higher; record f when lower.

(Q) Threshold query (selectivity ratio >= 20) on `Cl.c1cc2nc(c1)CNCCN(CCNCc1cccc3ccccc13)CCNC2`
(A) t

(Q) Param item: `Br.NCCCNCCN1CCNCc2cccc(n2)CNCC1`
(A) f

(Q) Param item: `Cl.c1ccc(CNCCN2CCNCc3cccc(n3)CNCC2)nc1`
(A) t
